# Tested on: Trypanosoma cruzi
# procedureSummary: Trypanosoma cruzi phosphomannomutase and mannose-1-phosphate guanylyltransferase assay
# Assay type: functional
# Design: scale not given: direction of the effect not stated beside the values
# testSettings: 10 µM
measurementKind: Percent Effect (%)
State the answer as a number, implicitly in %.

Observe how each entry below is paired with its result.
> print(dat)
                                   molecule  measurednumber
1  CCN1CCN(C2CCN(Cc3nc(-c4ccoc4)no3)CC2)C1=O           -5.24
2    CN(C)C(=O)CSc1nnc(CCNC(=O)OC(C)(C)C)o1           -8.64
3   Clc1ccccc1C1(c2ccnc(-c3ncccn3)n2)CCNCC1           -3.64

Query: Which measured Percent Effect value corresponds to O=c1[nH]c2c(c(=O)n1C1CCCCC1)CCC2NCCc1ccccc1 (configuration not stated) ?
Result: 2.75

Query: How about this molecule: "CNC(=O)N1CC[C@@H]2CN(Cc3cccnc3)S(=O)(=O)[C@@H]2CC1"
Result: 1.27

Query: Try this molecule too: CCc1csc(C2CCCN(C(=O)c3ccc(OC)nn3)C2)n1 (configuration not stated)
Result: 0.187

###

# measuredTarget: Ubiquitin-activating enzyme e1, putative (Leishmania donovani (strain BPK282A1))
# procedureSummary: Leishmania donovani Ubiquitin Activating Enzyme (LdE1)
# Type: functional
# Design: scale not given: direction of the effect not stated beside the values
# testSettings: 30 µM
Entries with a potency or affinity are not part of this list.
measurementKind: Percent Effect (%)
Value expressed in %; do not type the unit.

# example entries with known answers
> print(dat)
                                   molecule  measurednumber
1  CCN1C(=O)C2(CCOCC2)c2cc(NC(=O)c3ccco3)ccc21            18.2
2  O=C(c1ccc(F)c(F)c1)N1CCCC1CN1CCCC1 (stereo unspecified)            7.89
3  COCC1CN(C(=O)C2=CCCCC2)Cc2cnn(CC3CC3)c21 (stereo unspecified)              13

Query: Which Percent Effect is listed for "CCS(=O)(=O)N1CCC(c2nnc(Cn3cccn3)n2C2CC2)CC1" ?
Result: 1.39

Query: Queued: Cc1nc(COCc2cnc3n2CCN(CC2CCC2)C3C)cs1 (stereo unspecified)
Result: -2.67

Query: # repeat for CCn1ccnc1CN(C)C1CCCN(CCc2ccccc2)C1 (stereo unspecified)
Result: 0

Query: Now this one: "Cc1noc(C)c1C(=O)N(C)Cc1nc(-c2ccccn2)no1"
Result: 2.67

Query: And then Cc1cc(C)n(C2CCCN(C(=O)CCNS(C)(=O)=O)C2)n1 (stereo unspecified) , what is it?
Result: -6.33

Query: What do you have for "CN(C)C(=O)CNC(=O)c1cc(Br)c2c(c1)OCCO2" ?
Result: 8

Query: Thanks! And CN(Cc1nnc(C2CC2)n1C)C1CCN(CCc2cccs2)C1 (stereo unspecified) ?
Result: 5.48

Query: One more molecule: "COCC(=O)N1CC[C@@H]2O[C@H](COCc3ccncc3)CC[C@@H]21"
Result: 18.9

###

# measuredTarget: Sialic acid-binding Ig-like lectin 9 (Homo sapiens) (UniProt Q9Y336)
# Sequence (Q9Y336 whole entry): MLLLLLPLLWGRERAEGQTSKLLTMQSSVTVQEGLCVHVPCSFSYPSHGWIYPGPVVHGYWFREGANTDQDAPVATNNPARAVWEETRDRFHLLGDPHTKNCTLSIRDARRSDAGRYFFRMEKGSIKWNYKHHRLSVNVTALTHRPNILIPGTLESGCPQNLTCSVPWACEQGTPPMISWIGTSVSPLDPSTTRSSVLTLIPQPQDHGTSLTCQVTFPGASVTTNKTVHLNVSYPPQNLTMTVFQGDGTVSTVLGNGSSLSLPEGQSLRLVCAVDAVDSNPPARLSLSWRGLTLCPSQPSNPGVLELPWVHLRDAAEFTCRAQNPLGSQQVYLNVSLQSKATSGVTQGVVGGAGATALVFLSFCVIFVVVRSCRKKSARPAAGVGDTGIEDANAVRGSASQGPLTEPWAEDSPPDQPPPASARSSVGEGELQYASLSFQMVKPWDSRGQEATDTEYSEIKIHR
# procedureSummary: Hs-Siglec9 ALPHAscreen SOP 20170721
# Design: scale not given: direction of the effect not stated beside the values
# testSettings: 10 µM
Here the recorded Percent Effect is given for each entry.
The answer is to be given in %; state only the numeric part.

Guide cases for Percent Effect, answers given:
> print(dat)
                                    compound                            measuredtarget  measurementkind  resultunit  measurednumber
 1  NC(=O)CSCCC(=O)N1CCCC1c1ccsc1 (centres undefined)  Sialic acid-binding Ig-like lectin 9 (Homo sapiens) (UniProt Q9Y336)   Percent Effect           %             8.9
 2  Cc1n[nH]cc1CNc1ccc2c(c1)N(C(=O)OC(C)(C)C)CCC2  Sialic acid-binding Ig-like lectin 9 (Homo sapiens) (UniProt Q9Y336)   Percent Effect           %            5.14
 3   COc1ncccc1C(=O)N1CCC(c2nnc(C3CC3)o2)CC1  Sialic acid-binding Ig-like lectin 9 (Homo sapiens) (UniProt Q9Y336)   Percent Effect           %            3.07
 4  O=C(Cc1ccccn1)N1CCC2(CC1)CC(Oc1ccccn1)CO2 (centres undefined)  Sialic acid-binding Ig-like lectin 9 (Homo sapiens) (UniProt Q9Y336)   Percent Effect           %           0.184
 5         O=C(Cc1ccc2c(c1)CCC2)NCCNc1ncccn1  Sialic acid-binding Ig-like lectin 9 (Homo sapiens) (UniProt Q9Y336)   Percent Effect           %            1.21
 6  CC(C)c1noc(CCCC(=O)N2CCN(Cc3ccncc3)CC2)n1  Sialic acid-binding Ig-like lectin 9 (Homo sapiens) (UniProt Q9Y336)   Percent Effect           %           -9.55
 7          COc1cccc(NC(=O)N(CCO)Cc2ccsc2)c1  Sialic acid-binding Ig-like lectin 9 (Homo sapiens) (UniProt Q9Y336)   Percent Effect           %           -5.41
 8  CC(C)c1noc(C(C)N2CCN(Cc3ccco3)CC2)n1 (centres undefined)  Sialic acid-binding Ig-like lectin 9 (Homo sapiens) (UniProt Q9Y336)   Percent Effect           %            3.05
 9  O=C(CCC1CCCO1)NS(=O)(=O)c1ccc(Cl)cc1 (centres undefined)  Sialic acid-binding Ig-like lectin 9 (Homo sapiens) (UniProt Q9Y336)   Percent Effect           %           0.394
10  O=C(NCC1CCOC1)c1csc(-c2ccco2)n1 (centres undefined)  Sialic acid-binding Ig-like lectin 9 (Homo sapiens) (UniProt Q9Y336)   Percent Effect           %          -0.826

Query: Value lookup for Percent Effect; key = Cc1ccc(OCCC(=O)NC2CCc3nc(C)cn3C2)cc1 (centres undefined)
Result: 5.54

Query: "COc1ccc2c(c1)CCN(CCC(=O)NC1CCCCC1)CC2" , same question.
Result: 1.78

Query: Record: "Cc1ccc(C(=O)N2CCSCC2)cc1NC(=O)Cn1cncn1"
Result: 10.2

###

# measuredTarget: Tyrosyl-tRNA synthetase, putative (Trypanosoma cruzi (strain CL Brener))
# procedureSummary: Trypanosoma cruzi tyrosyl tRNA synthetase (TcYRS) _High Tyrosine SOP; also: in the data most compounds retested in dose-response had high values
# Assay type: functional
# Design: scale not given: direction of the effect not stated beside the values
# testSettings: 30 µM
Percent Effect listing for selected molecules.
Numeric answer only, unit % assumed.

Query: Given the molecule "CCCNC(=O)Cn1cc(-c2ccccc2)cn1" , what is its reported Percent Effect?
Result: 2.08

###

# Percent Effect annotations
# measuredTarget: Tyrosyl-tRNA synthetase, putative (Trypanosoma cruzi (strain CL Brener)) (UniProt Q4DSP6)
# Sequence (Q4DSP6 as listed by the source): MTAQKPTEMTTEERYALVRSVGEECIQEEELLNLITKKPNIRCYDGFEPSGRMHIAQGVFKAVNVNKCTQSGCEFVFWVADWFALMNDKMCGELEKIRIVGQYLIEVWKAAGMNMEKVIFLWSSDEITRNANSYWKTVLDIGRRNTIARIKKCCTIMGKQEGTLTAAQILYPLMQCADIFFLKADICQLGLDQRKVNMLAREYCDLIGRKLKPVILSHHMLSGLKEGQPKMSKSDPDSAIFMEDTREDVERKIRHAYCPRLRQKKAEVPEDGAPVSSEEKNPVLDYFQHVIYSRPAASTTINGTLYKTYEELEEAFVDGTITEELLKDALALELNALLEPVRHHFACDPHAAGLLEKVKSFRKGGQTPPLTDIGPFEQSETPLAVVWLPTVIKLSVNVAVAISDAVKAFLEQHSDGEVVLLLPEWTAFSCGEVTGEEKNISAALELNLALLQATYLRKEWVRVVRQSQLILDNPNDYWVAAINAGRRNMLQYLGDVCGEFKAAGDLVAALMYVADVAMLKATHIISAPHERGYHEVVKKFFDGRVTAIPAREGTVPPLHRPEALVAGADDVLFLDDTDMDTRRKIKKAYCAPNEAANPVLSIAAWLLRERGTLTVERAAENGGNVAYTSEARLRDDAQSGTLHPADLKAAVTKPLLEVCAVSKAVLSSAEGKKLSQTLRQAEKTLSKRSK
# procedureSummary: Trypanosoma cruzi tyrosyl tRNA synthetase (TcYRS) _High Tyrosine SOP; also: in the data most compounds retested in dose-response had high values
# Assay type: functional
# Design: scale not given: direction of the effect not stated beside the values
# testSettings: 30 µM
The reply should be a number in %, with the unit left off.

Please review the following examples before continuing.
> print(dat)
                                   compound  resultunit  measurednumber
1  Cc1cnn(C2CCCN(C(=O)CCCNc3ncccn3)C2)c1 (stereo not drawn)           %           -13.3
2  CCc1nsc(NC2CCCn3nc(COC)nc32)n1 (stereo not drawn)           %            3.83
3    CC(C)OCCCNC(=O)CN1CCC(N2CCN(C)C2=O)CC1           %          -0.493

API: the following record is the query input.
Query: Lab note: need Percent Effect for "CCOc1ccc(CNCCCn2ccnc2)cc1Br" on Tyrosyl-tRNA synthetase, putative (Trypanosoma cruzi (strain CL Brener)) (UniProt Q4DSP6), anyone have it?
Result: 6.35

###

# measuredTarget: Chromo domain-containing protein 1 (Saccharomyces cerevisiae (strain ATCC 204508 / S288c) (Baker's yeast))
# procedureSummary: ScCHD-1 Enzyme Inhibition Assay; also: in the data most compounds retested in dose-response had high values
# Assay type: functional
# Set-up: scale not given: direction of the effect not stated beside the values
# testSettings: 30 µM
measurementKind: Percent Effect (%)
Quick note: give the figure in %, leave out the unit.

> print(dat)
                                   compound  measurednumber
1  CC(C)C(=O)N1CCN(C(=O)c2cc(C(C)C)on2)[C@H]2CS(=O)(=O)C[C@H]21           -5.25

Query: Please report the recorded Percent Effect for COc1c(CNC(c2ccc(F)cc2)C(C)(C)C)c(C)nn1C (centres undefined) .
Result: -5.33

Query: Now try O=C(NC1CCCC1)NC1CCC(C(=O)N2CCSCC2)CC1 (centres undefined) .
Result: -0.623

Query: Proceed to O=C(O)CC1CN(Cc2ccccc2)CCO1 (centres undefined)
Result: -5.29

Query: Moving on to the next compound: Cn1ccnc1CNC1CCCN(Cc2noc(C3CC3)n2)C1 (centres undefined)
Result: -3.57

Query: Queued: "NC(=O)Cc1ccc(NC(=O)C2CCOCC2)cc1"
Result: -1.7

Query: Then what about the compound "Cc1noc([C@H]2COC[C@H]3CN(C(=O)Cc4ccc(F)cc4)C[C@H]32)n1" ?
Result: -1.22

Query: Do the same for Cn1cc(CC2CCN(C(=O)NCCc3cccc(O)c3)C2)cn1 (centres undefined) please
Result: -2.6

Query: Please answer likewise for Cc1ccc(NC(=O)NC(C)c2nc[nH]n2)s1 (centres undefined)
Result: -2.14

Query: Now this one: CC(C)c1cc(NCC(O)CO)n2nccc2n1 (centres undefined)
Result: -9.93

Query: Please give the result for CC(=O)N1CCC2(CC1)CC(Oc1ccccc1)CO2 (centres undefined) too.
Result: 3.27

Query: Follow-up entry: "CC(C)CCNC(=O)c1sccc1N(C)S(=O)(=O)c1ccccc1"
Result: -3.5

Query: And CC(NC(=O)NCc1ccc(Cl)cc1)c1ccccn1 (centres undefined) ?
Result: -24.6

Query: Queued: "CCC1(CC)Cc2ccccc2-c2nc(CN(C)C)nc(O)c21"
Result: -3.79

Query: Here is the next compound: CCc1noc(C2CCCCN2C(=O)c2ccoc2C)n1 (centres undefined)
Result: -6.62

Query: Field entry: "CCC1=N[C@@]2(CC[C@@H]3CN(Cc4ccc(Cl)cc4)C[C@@H]32)C(=O)N1C"
Result: 2.84

Query: What would you report for Cc1nccn1CC1CCCN1CCCc1nc(-c2cccs2)no1 (centres undefined) ?
Result: 2.34

Query: And "Cc1cc(C[C@@H]2COC[C@H]2NCc2ccccc2C(F)(F)F)on1" ?
Result: -18.2

Query: Cool, now "CCOc1ncccc1C(=O)N(C)Cc1ncc(C)c(OC)c1C"
Result: -14.4
